As an illustration, consider measured IC50 for compounds on PI3K γ (Homo sapiens).
Sequence (P48736 whole entry): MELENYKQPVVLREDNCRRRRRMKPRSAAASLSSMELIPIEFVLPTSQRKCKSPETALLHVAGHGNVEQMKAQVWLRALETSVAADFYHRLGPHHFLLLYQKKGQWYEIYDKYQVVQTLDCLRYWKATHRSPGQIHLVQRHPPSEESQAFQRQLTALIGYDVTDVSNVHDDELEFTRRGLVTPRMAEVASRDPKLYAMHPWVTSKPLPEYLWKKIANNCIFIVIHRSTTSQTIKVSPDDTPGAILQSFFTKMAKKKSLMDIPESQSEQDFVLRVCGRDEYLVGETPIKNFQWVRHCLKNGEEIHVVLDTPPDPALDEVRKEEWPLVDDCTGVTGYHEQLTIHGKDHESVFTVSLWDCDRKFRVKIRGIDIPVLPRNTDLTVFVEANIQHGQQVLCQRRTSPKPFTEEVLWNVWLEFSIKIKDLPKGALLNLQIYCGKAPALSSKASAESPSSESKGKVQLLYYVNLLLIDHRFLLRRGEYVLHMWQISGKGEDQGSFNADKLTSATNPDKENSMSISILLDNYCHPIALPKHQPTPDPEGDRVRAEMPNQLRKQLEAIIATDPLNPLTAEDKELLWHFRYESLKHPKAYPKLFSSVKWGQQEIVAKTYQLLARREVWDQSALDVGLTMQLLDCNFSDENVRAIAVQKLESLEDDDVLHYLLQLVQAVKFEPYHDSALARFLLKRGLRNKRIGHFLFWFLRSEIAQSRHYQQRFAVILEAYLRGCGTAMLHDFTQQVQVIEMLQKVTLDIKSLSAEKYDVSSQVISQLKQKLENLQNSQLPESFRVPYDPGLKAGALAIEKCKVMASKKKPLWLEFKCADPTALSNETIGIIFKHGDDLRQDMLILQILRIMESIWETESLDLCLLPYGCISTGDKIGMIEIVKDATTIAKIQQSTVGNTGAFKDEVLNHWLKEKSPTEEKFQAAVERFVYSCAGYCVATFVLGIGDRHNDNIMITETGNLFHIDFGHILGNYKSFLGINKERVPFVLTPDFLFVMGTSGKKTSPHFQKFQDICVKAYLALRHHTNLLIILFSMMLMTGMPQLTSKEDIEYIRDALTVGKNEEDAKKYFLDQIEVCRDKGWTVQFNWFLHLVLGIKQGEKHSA

# chem_smiles, IC50
records = [
    ("C[C@H](N)C(=O)N1CCN(c2cnc3ccc(-c4ccc5oc(N)nc5c4)nc3c2)CC1", "< 1000 nM"),
    ("C[C@@H](N)C(=O)N1CCN(c2cnc3ccc(-c4ccc5oc(N)nc5c4)nc3n2)CC1", "< 1000 nM"),
    ("Nc1nc2cc(-c3ccc4ncc(N5CC(N6CCOCC6)C5)nc4n3)ccc2o1", "< 10000 nM"),
    ("C[C@@H]1CN(C2CN(c3cnc4ccc(-c5ccc6nc(N)[nH]c6c5)nc4c3)C2)CCN1C", "> 10000 nM"),
    ("CN1CCN(C2CN(c3cnc4ccc(-c5ccc6oc(N)nc6c5)nc4c3)C2)CC1", "< 1000 nM"),
]

Query for PI3K γ (Homo sapiens): what IC50 does the record show for Nc1nc2cc(-c3ccc4ncc(N5CCC(F)(F)CC5)nc4n3)ccc2o1 ?
< 100 nM

Subsequent entry: C[C@H]1COCCN1c1cnc2ccc(-c3ccc4oc(N)nc4c3)nc2n1
< 100 nM
